System: NCI-H522 lung
protocol text: NCI tumour cell line growth inhibition, 48 h
The following molecules are shown together with reported TGI values.

CC(=O)/C(=C\C1=CCCO1)C(=O)Nc1ccccc1C    > 100 µM
NC1=NN(c2ccccc2)C2(O)c3ccncc3C3=NN(c4ccccc4)C(=O)C132 (stereo not given)    > 100 µM
CCC(=O)NC(Nc1ccc(O)cc1)(C(F)(F)F)C(F)(F)F    66.6 µM
CCOC(=O)NC(=O)c1cn(CCCOC(=O)CCCCCCCCCCC(=O)OCCCn2cc(C(=O)NC(=O)OCC)c(=O)n(C)c2=O)c(=O)n(C)c1=O    > 100 µM

Continue with the molecule presented below.
-- ask Look up TGI with NCI-H522 lung for this molecule: Fc1ccccc1-c1nn2c(C34CC5CC(CC(C5)C3)C4)nnc2s1
-- reply > 100 µM

---

System: SNB-78 CNS
protocol text: NCI tumour cell line growth inhibition, 48 h
measured endpoint: TGI

O=c1ccnc2c1ccc1[nH]cccc12    > 100 µM
CCOC(=O)NC(=O)c1cn(CCCOC(=O)CCCCCCCCCCC(=O)OCCCn2cc(C(=O)NC(=O)OCC)c(=O)n(C)c2=O)c(=O)n(C)c1=O    > 100 µM

-- ask Reported TGI, compound COc1cc(C=Nc2ccc(C(C)C)cc2)cc(OC)c1OC : ____
-- reply > 100 µM

-- ask Reported TGI, compound COC(=O)C12C(=O)O[C@H](C)C1(O)C(C)C(=O)N2C (stereo not given in full) : ____
-- reply > 100 µM

-- ask Reported TGI, compound Cc1cccc(C)c1NC(=O)CCc1nnc2s/c(=C\c3ccc(Cl)cc3)c(=O)n12 : ____
-- reply > 100 µM

---

The following compounds are shown together with reported TGI values.
Tested on: CCRF-CEM leukemia
protocol text: NCI tumour cell line growth inhibition, 48 h

CC[Si](CC)(CC)OC[C@]1([C@@H]2COC(C)(C)O2)CC=CC(=O)O1    > 100 µM
O=C1c2ccccc2C2=Nc3ccncc3CN12    > 100 µM

Continue with the compound presented below.
-- ask Reported TGI, compound Cc1nn(-c2ccccc2)c2[nH]c(=S)cnc12 : ____
-- reply > 100 µM

---

Tested on: CAKI-1 renal
protocol text: NCI tumour cell line growth inhibition, 48 h
measured endpoint: TGI

# annotated cases, reported TGI shown
CN(C)C(=O)Nc1cc2c3c(c1)CCCN3CCC2    > 10 µM
CCOC(=O)C1=C(Nc2ccc(Cl)cc2Cl)OC/C1=N\NS(=O)(=O)c1ccc(C)cc1    > 100 µM
COc1cc(C(=O)C/C(CCC(=O)Nc2ccc(Cl)cc2C)=N/NC(=O)C(N)=O)ccc1O    > 100 µM
COc1cc(NP(=O)(Oc2ccccc2)Oc2ccccc2)ccc1Nc1c2ccccc2nc2c1[nH]c1ccccc12    17.3 µM
C[C@@H]1N=C(c2ccc(Br)cc2)Nc2nc3ccccn3c2C1=O    > 100 µM

-- ask Reported TGI, molecule N=C(N)c1csc([C@@H]2O[C@H](CO)[C@@H](O)[C@H]2O)n1 : ____
-- reply > 100 µM

-- ask Reported TGI, molecule O=C(Nc1ccc(F)cc1F)c1cc(Br)ccc1O : ____
-- reply 6.66 µM

-- ask Reported TGI, molecule C=C[C@H]1CCC/C=C/[C@@H]2C[C@H](O)C[C@H]2[C@H](O)/C=C/C(=O)O1 : ____
-- reply > 100 µM

-- ask Reported TGI, molecule COC(=O)C12C3C4C5C3(C#N)C1C5(C(=O)OC)C42C(=O)N(C(C)C)C(C)C (stereo not given) : ____
-- reply > 100 µM

-- ask Reported TGI, molecule CCCn1c(SCC)c2cc3cc4ccccc4cc3cc2c1-c1nc(F)nc(F)n1 : ____
-- reply > 100 µM
